Target: T1, Vps4^E233Q (yeast, UniProt P52917 1-437, E233Q)
T1 sequence: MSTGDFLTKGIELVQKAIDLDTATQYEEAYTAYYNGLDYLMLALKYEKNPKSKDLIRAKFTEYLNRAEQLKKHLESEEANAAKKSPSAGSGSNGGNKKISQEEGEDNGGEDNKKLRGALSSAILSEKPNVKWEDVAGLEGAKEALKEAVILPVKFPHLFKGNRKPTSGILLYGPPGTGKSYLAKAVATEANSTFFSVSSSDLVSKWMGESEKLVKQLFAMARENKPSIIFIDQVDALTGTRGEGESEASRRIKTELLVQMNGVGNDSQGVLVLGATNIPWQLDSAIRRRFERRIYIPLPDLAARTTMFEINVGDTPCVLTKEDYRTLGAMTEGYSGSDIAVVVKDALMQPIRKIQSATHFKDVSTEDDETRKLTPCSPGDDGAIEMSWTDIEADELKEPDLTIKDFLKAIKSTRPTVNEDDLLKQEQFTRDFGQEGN
Assay: pull-down
experimentalReadout: binding result

RASKIEQIQKLAKYAISALNYEDLPTAKDELTKALDLLNSI (domain or fragment) [GST-VSL^Vta1] = binds
GST-SBP1 (natural protein) MAALAPLPPLPAQFKSIQHHLRTAQEHDKRDPVVAYYCRLYAMQTGMKIDSKTPECRKFLSKLMDQLEALKKQLGDNEAITQEIVGCAHLENYALKMFLYADNEDRAGRFHKNMIKSFYTASLLIDVITVFGELTDENVKHRKYARWKATYIHNCLKNGETPQAGPVGIEEDNDIEENEDAGAASLPTQPTQPSSSSTYDPSNMPSGNYTGIQIPPGAHAPANTPAEVPHSTGVASNTIQPTPQTIPAIDPALFNTISQGDVRLTPEDFARAQKYCKYAGSALQYEDVSTAVQNLQKALKLLTTGRE = binds
